A collection of substances and their measured Log2 FC
- Test system: type D HBV core antigen (HBcAg) reporter cell line
- ASSAY TEXT: sgRNA lentiviral library screening, HBcAg reporter cell line (NGS reads in GFP-negative cells)
- Format: cell-based
- RECORDED CONDITIONS: sgRNA in GFP-negative cell population, day 14 after transfection of EPIREG
READOUT LABEL: Log2 FC

SUBSTANCE | MEAS VALUE
357 (guide CATGACCAAGCCCCAGCCAG; listed as DNA, chemistry not fully specified) [compound 357] | 3.1523
74 (guide ACAATGCTCAGGAGACTCTA; listed as DNA, chemistry not fully specified) [compound 74] | 2.1202
985 (guide TCTGCCGTTCCGACCGACCA; listed as DNA, chemistry not fully specified) [compound 985] | 3.1824

====

- Test system: type D HBV core antigen (HBcAg) reporter cell line
- ASSAY TEXT: sgRNA lentiviral library screening, HBcAg reporter cell line (NGS reads in GFP-negative cells)
- Assay type: cell-based
- RECORDED CONDITIONS: sgRNA in GFP-negative cell population, day 14 after transfection of EPIREG
A collection of substances and their measured Log2 FC

SUBSTANCE | SYSTEM UNDER TEST | Log2 FC
598 (guide GACATGAACAAGAGATGATT; listed as DNA, chemistry not fully specified) [compound 598] | type D HBV core antigen (HBcAg) reporter cell line | 4.6761
841 (guide GTGAAAAAGTTGCATGGTGC; listed as DNA, chemistry not fully specified) [compound 841] | type D HBV core antigen (HBcAg) reporter cell line | 2.0112
120 (guide ACTACTAGGTCTCTAGATGC; chemistry not given here) [compound 120] | type D HBV core antigen (HBcAg) reporter cell line | 2.9841
225 (guide ATACCGCCTCAGCTCTGTAT; listed as DNA, chemistry not fully specified) [compound 225] | type D HBV core antigen (HBcAg) reporter cell line | 3.966
1006 (guide TGACCAAGCCCCAGCCAGTG; listed as DNA, chemistry not fully specified) [compound 1006] | type D HBV core antigen (HBcAg) reporter cell line | 4.2194
998 (guide TCTTTGTACTAGGAGGCTGT; listed as DNA, chemistry not fully specified) [compound 998] | type D HBV core antigen (HBcAg) reporter cell line | 4.2906
39 (guide AACCCCCACTGGCTGGGGCT; listed as DNA, chemistry not fully specified) [compound 39] | type D HBV core antigen (HBcAg) reporter cell line | 3.4538
810 (guide GTAAAGAGAGGTGCGCCCCG; listed as DNA, chemistry not fully specified) [compound 810] | type D HBV core antigen (HBcAg) reporter cell line | 2.5258
467 (guide CGACCCTTCTCGGGGTCGCT; listed as DNA, chemistry not fully specified) [compound 467] | type D HBV core antigen (HBcAg) reporter cell line | 2.0481
553 (guide CTGGCCGTTGCCGGGCAACG; listed as DNA, chemistry not fully specified) [compound 553] | type D HBV core antigen (HBcAg) reporter cell line | 2.4462
628 (guide GAGGTGAAGCGAAGTGCACA; listed as DNA, chemistry not fully specified) [compound 628] | type D HBV core antigen (HBcAg) reporter cell line | 3.2225
668 (guide GCAGAGGTGAAAAAGTTGCA; listed as DNA, chemistry not fully specified) [compound 668] | type D HBV core antigen (HBcAg) reporter cell line | 1.9744
506 (guide CGTCCCGCGCAGGATCCAGT; listed as DNA, chemistry not fully specified) [compound 506] | type D HBV core antigen (HBcAg) reporter cell line | 3.3238

====

- Test system: type D HBV core antigen (HBcAg) reporter cell line
- ASSAY TEXT: sgRNA lentiviral library screening, HBcAg reporter cell line (NGS reads in GFP-negative cells)
- Type: cell-based
- RECORDED CONDITIONS: sgRNA in GFP-negative cell population, day 14 after transfection of EPIREG
READOUT LABEL: Log2 FC

SUBSTANCE | READOUT LABEL | MEAS VALUE
451 (guide CCTGCTGCGAGCAAAACAAG; listed as DNA, chemistry not fully specified) [compound 451] | Log2 FC | 2.9406
657 (guide GCAAACACTTGGCACAGACC; listed as DNA, chemistry not fully specified) [compound 657] | Log2 FC | 1.9192
612 (guide GACGCAACCCCCACTGGCTG; listed as DNA, chemistry not fully specified) [compound 612] | Log2 FC | 2.8035

====

- Tested on: type D HBV surface antigen (HBsAg) reporter cell line
- ASSAY TEXT: sgRNA lentiviral library screening, HBsAg reporter cell line (NGS reads in GFP-negative cells)
- Assay type: cell-based
- RECORDED CONDITIONS: sgRNA in GFP-negative cell population, day 14 after transfection of EPIREG
A collection of substances and their measured Log2 FC
READOUT LABEL: Log2 FC

SUBSTANCE | SYSTEM UNDER TEST | MEAS VALUE
834 (guide GTCGGAACGGCAGACGGAGA; listed as DNA, chemistry not fully specified) [compound 834] | type D HBV surface antigen (HBsAg) reporter cell line | 1.2666
483 (guide CGCCCCGTGGTCGGTCGGAA; listed as DNA, chemistry not fully specified) [compound 483] | type D HBV surface antigen (HBsAg) reporter cell line | 2.4519
1084 (guide TTAAAGGTCTTTGTACTAGG; listed as DNA, chemistry not fully specified) [compound 1084] | type D HBV surface antigen (HBsAg) reporter cell line | 1.0831
467 (guide CGACCCTTCTCGGGGTCGCT; listed as DNA, chemistry not fully specified) [compound 467] | type D HBV surface antigen (HBsAg) reporter cell line | 1.8988
839 (guide GTCTTACATAAGAGGACTCT; listed as DNA, chemistry not fully specified) [compound 839] | type D HBV surface antigen (HBsAg) reporter cell line | 1.3376
215 (guide AGTCTTTGAAGTATGCCTCA; listed as DNA, chemistry not fully specified) [compound 215] | type D HBV surface antigen (HBsAg) reporter cell line | 1.3799
